Cited source for all entries: patent US10124004B2

Quick reference for pIC50 among some molecules
SYSTEM UNDER TEST: CDK4/cyclin D3 (Homo sapiens, UniProt P11802)
Construct: purchased Carna Biosciences, Inc. QS S Assist CDK4/Cyclin D3_FP Kit
Sequence (P11802 whole entry): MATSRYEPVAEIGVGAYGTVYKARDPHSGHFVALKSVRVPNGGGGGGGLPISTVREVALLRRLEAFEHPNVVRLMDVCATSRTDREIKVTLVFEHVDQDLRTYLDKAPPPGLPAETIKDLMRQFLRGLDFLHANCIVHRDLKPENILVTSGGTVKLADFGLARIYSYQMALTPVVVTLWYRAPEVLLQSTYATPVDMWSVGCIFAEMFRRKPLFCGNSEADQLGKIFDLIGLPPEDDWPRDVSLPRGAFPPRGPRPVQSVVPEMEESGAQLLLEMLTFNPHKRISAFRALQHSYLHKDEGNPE
Sequence (P30281 whole entry partner): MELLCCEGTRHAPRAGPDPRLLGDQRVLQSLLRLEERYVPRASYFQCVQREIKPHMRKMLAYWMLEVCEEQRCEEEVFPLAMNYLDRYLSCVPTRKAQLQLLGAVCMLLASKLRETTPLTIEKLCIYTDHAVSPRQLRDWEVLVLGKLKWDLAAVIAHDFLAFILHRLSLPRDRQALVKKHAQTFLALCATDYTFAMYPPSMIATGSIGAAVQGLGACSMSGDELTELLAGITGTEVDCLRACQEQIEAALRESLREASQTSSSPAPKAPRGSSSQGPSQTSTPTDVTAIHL
EXPERIMENT NOTES: Human CDK4/cyclin D3 inhibitory activity (QS S Assist CDK4/Cyclin D3_FP Kit, IMAP fluorescence polarization)
Type: biochemical
CONDITION LABEL: Human CDK4/cyclin D3 inhibitory activity; read-out: CDK4 Activity symbol
pIC50: −log10 of the molar value.
PROPERTY: pIC50

# MOLECULE, RESULT VALUE
data = [
    ("CC(C)Nc1nc(C(F)F)cc2cnc(Nc3ccc(OCCN4CCCC4=O)cn3)nc12", "> 8.00"),
    ("CO[C@H](C)c1cc2cnc(Nc3ccc(CN4CCCNCC4)cn3)nc2c(NC(C)C)n1", "> 8.00"),
    ("CC(C)Nc1nc([C@@H](C)O)cc2cnc(Nc3ccc(N4CC5(CCNC5)C4)nn3)nc12", "> 8.00"),
    ("COC(C)c1cc2cnc(Nc3ccc(CN4CCNC5(CC5)C4)cn3)nc2c(NC(C)C)n1 (centres unmarked)", "7.00 to 8.00"),
    ("CC(C)Nc1nc([C@@H](C)O)cc2cnc(Nc3ccc(N4CCCNCC4)nn3)nc12", "> 8.00"),
    ("CC(C)Nc1nc(C(F)F)cc2cnc(Nc3ccc(CN4CCCC4=O)cn3)nc12", "> 8.00"),
    ("CC(C)Nc1nc([C@@H](C)O)cc2cnc(Nc3ccc(CC(=O)N4CCN(C(C)C)CC4)cn3)nc12", "> 8.00"),
    ("CO[C@H](C)c1cc2cnc(Nc3ccc(CC(N)=O)cn3)nc2c(NC(C)C)n1", "7.00 to 8.00"),
    ("C[C@@H](O)c1cc2cnc(Nc3ccc(CN4CCNCC4)cn3)nc2c(N[C@H]2CCOC2)n1", "> 8.00"),
    ("CO[C@H](C)c1cc2cnc(Nc3ccc(OCC(=O)N4CCNCC4)cn3)nc2c(NC(C)C)n1", "> 8.00"),
    ("CC(C)Nc1nc(C(F)F)cc2cnc(Nc3ccc(OCCCO)cn3)nc12", "> 8.00"),
    ("COC(C)c1cc2cnc(Nc3ccc(CN4CCNCC4)cn3)nc2c(NC2(CO)CCCC2)n1 (centres unmarked)", "> 8.00"),
    ("CC(C)Nc1nc([C@@H](C)O)cc2cnc(Nc3ccc(N4CC5(CCNCC5)C4)nn3)nc12", "> 8.00"),
    ("CC(C)Nc1nc(C(=O)N(C)C)cc2cnc(Nc3ccc(N4CCNCC4)cn3)nc12", "7.00 to 8.00"),
    ("Cc1c(C(F)F)nc(NC(C)C)c2nc(Nc3ccc(N4CCNCC4)cn3)ncc12", "> 8.00"),
    ("CC(=O)c1cc2cnc(Nc3ccc(N4CCNCC4)cn3)nc2c(NC2CCOCC2)n1", "> 8.00"),
    ("CO[C@H](C)c1cc2cnc(Nc3ccc(CN4CCNCC4)cn3)nc2c(NCC2CCOC2)n1 (some centres unmarked)", "> 8.00"),
    ("CC(C)Nc1nc(C(F)F)cc2cnc(Nc3ccc(N4CCNC(C)(C)C4)cn3)nc12", "> 8.00"),
    ("CCNc1nc(C(C)=O)cc2cnc(Nc3ccc(N4CCNCC4)cn3)nc12", "7.00 to 8.00"),
    ("CO[C@H](C)c1cc2cnc(Nc3ccc(N(C)C(=O)C4CCNCC4)cn3)nc2c(NC(C)C)n1", "7.00 to 8.00"),
    ("CO[C@H](C)c1cc2cnc(Nc3ccc(N4CC[C@H](N)[C@@H](F)C4)cn3)nc2c(NC(C)C)n1", "> 8.00"),
    ("CC(C)Nc1nc([C@H](C)O)cc2cnc(Nc3ccc(N4CCNCC4)cn3)nc12", "> 8.00"),
    ("COC(C)c1cc2cnc(Nc3ccc(CN4CCNCC4)cn3)nc2c(NCCC2CCCCO2)n1 (centres unmarked)", "> 8.00"),
    ("COCC(C)(C)Nc1nc([C@@H](C)O)cc2cnc(Nc3ccc(CN4CCN(CC(F)F)CC4)cn3)nc12", "7.00 to 8.00"),
    ("CO[C@H](C)c1cc2cnc(Nc3ccc(CN4CC5CC(C4)O5)cn3)nc2c(NC(C)C)n1", "> 8.00"),
    ("CO[C@H](C)c1cc2cnc(Nc3ccc(CN4CCN(CCF)CC4)cn3)nc2c(NC(C)C)n1", "> 8.00"),
    ("CO[C@H](C)c1cc2cnc(Nc3ccc(N4CCN(C)CC4)nn3)nc2c(NC(C)C)n1", "> 8.00"),
    ("CO[C@H](C)c1cc2cnc(Nc3ccc(N4CCNCC4)nn3)nc2c(NC2CCS(=O)(=O)CC2)n1", "7.00 to 8.00"),
    ("CC(C)Nc1nc(C(F)F)cc2cnc(Nc3ccc(C4CCOCC4)cn3)nc12", "> 8.00"),
    ("COC(C)c1cc2cnc(Nc3ccc(OCC(C)(C)N)cn3)nc2c(NC(C)C)n1 (centres unmarked)", "> 8.00"),
    ("CO[C@H](C)c1cc2cnc(Nc3ccc(N4CCN[C@H](C)C4=O)cn3)nc2c(NC(C)C)n1", "7.00 to 8.00"),
    ("CO[C@H](C)c1cc2cnc(Nc3ccc(NC4CC5(CNC5)C4)cn3)nc2c(NC(C)C)n1", "> 8.00"),
]
